measurement_target: h-5-HT6 receptor (Homo sapiens, UniProt P50406)
Construct: expressed in transfected cells
Sequence (P50406 whole entry): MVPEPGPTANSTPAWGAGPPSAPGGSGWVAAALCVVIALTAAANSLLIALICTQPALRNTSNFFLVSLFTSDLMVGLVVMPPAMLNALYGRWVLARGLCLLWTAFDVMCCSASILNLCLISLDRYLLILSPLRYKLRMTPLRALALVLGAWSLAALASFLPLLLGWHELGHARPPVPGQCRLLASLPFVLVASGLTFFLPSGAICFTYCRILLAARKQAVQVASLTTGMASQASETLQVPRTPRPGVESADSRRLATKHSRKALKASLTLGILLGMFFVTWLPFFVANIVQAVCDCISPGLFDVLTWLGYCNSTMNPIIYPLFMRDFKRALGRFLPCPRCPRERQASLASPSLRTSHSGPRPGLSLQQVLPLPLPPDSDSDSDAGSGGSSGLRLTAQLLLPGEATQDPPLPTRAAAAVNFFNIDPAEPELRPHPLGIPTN
test_summary: 5-HT6 receptor binding assay (displacement of [3H]-LSD)
assay_setup: membranes of HEK293 cells expressing h-5-HT6 receptor, 1 nM [3H]-LSD; read-out: Ki(5HT6)
Structures can show the parent of a compound that is named as a salt.
Reported Ki values follow for various compounds

Could you tell me which Ki is on file for COc1ccc(N(C)S(=O)(=O)c2cccc(OC(F)F)c2)cc1N1CCN(C)CC1 [Example 24, Hydrochloride] ? < 0.01 µM

For O=S(=O)(Nc1ccc(OC(F)(F)F)c(N2CCNCC2)c1)c1cccc(OC(F)F)c1 , what is its reported Ki? < 0.02 µM

Name the reported Ki value associated with the compound O=S(=O)(Nc1ccc(OCCF)c(N2CCNCC2)c1)c1cccc(OC(F)F)c1 [Example 11, Hydrochloride] < 0.01 µM

Others:
Requested field: Ki. Item: CCCN(c1ccc(OC)c(N2CCNCC2)c1)S(=O)(=O)c1cccc(OC(F)F)c1 [Example 18, Hydrochloride] < 0.05 µM

* * *

measurement_target: h-5-HT6 receptor (Homo sapiens)
Construct: expressed in transfected cells
test_summary: 5-HT6 receptor binding assay (displacement of [3H]-LSD)
assay_setup: membranes of HEK293 cells expressing h-5-HT6 receptor, 1 nM [3H]-LSD; read-out: Ki(5HT6)
pKi: −log10 of the molar value. Counter-ions that a name gives are not always drawn.
Below, each entry is listed alongside its reported pKi.

Need pKi of CN1CCN(c2cc(NS(=O)(=O)c3cccc(OC(F)F)c3)ccc2OC(F)(F)F)CC1 [Example 20, Hydrochloride] , thanks. > 8.00

Give the measured pKi of COc1c(F)cc(NS(=O)(=O)c2cccc3c2OC(F)(F)O3)cc1N1CCNCC1 [Example 10, Hydrochloride] . > 8.00

Given COc1ccc(S(=O)(=O)Nc2cccc(N3CCNCC3)c2)cc1OC(F)F [Example 31, Trifluoroacetate] , state its recorded pKi. > 7.30

Look at this molecule and give its reported pKi. O=S(=O)(Nc1ccc(F)c(N2CCNCC2)c1)c1cccc2c1OC(F)(F)O2 [Example 27, Hydrochloride] > 7.30

Would you mind telling me what pKi value was observed for O=S(=O)(Nc1cccc(N2CCNCC2)c1)c1cccc2c1OC(F)(F)O2 [Example 29, Hydrochloride] ? > 8.00

***
Looking for the measured pKi of COc1ccc(NS(=O)(=O)c2cccc(OC(F)F)c2)cc1N1CCN(C)CC1 , can you help? > 8.00

# lookup: pKi of COc1cc(Cl)c(NS(=O)(=O)c2cccc(OC(F)F)c2)cc1N1CCNCC1 [Example 19, Trifluoroacetate] > 7.30

* * *

# pKi values compiled below
measurement_target: h-5-HT6 receptor (Homo sapiens, UniProt P50406)
Construct: expressed in transfected cells
test_summary: 5-HT6 receptor binding assay (displacement of [3H]-LSD)
pKi: −log10 of the molar value. Structures can show the parent of a compound that is named as a salt.

Form field: reported pKi of O=S(=O)(Nc1cccc(N2CCNCC2)c1)c1ccccc1OC(F)F [Example 30, Trifluoroacetate] > 8.00

Others:
I have this molecule here, O=S(=O)(Nc1ccc(F)c(N2CCNCC2)c1)c1cccc(OC(F)F)c1 [Example 26, Hydrochloride] , and I need its recorded pKi. > 7.30
